Target: Angiotensin-converting enzyme (Oryctolagus cuniculus)
Sequence (P12822 whole entry): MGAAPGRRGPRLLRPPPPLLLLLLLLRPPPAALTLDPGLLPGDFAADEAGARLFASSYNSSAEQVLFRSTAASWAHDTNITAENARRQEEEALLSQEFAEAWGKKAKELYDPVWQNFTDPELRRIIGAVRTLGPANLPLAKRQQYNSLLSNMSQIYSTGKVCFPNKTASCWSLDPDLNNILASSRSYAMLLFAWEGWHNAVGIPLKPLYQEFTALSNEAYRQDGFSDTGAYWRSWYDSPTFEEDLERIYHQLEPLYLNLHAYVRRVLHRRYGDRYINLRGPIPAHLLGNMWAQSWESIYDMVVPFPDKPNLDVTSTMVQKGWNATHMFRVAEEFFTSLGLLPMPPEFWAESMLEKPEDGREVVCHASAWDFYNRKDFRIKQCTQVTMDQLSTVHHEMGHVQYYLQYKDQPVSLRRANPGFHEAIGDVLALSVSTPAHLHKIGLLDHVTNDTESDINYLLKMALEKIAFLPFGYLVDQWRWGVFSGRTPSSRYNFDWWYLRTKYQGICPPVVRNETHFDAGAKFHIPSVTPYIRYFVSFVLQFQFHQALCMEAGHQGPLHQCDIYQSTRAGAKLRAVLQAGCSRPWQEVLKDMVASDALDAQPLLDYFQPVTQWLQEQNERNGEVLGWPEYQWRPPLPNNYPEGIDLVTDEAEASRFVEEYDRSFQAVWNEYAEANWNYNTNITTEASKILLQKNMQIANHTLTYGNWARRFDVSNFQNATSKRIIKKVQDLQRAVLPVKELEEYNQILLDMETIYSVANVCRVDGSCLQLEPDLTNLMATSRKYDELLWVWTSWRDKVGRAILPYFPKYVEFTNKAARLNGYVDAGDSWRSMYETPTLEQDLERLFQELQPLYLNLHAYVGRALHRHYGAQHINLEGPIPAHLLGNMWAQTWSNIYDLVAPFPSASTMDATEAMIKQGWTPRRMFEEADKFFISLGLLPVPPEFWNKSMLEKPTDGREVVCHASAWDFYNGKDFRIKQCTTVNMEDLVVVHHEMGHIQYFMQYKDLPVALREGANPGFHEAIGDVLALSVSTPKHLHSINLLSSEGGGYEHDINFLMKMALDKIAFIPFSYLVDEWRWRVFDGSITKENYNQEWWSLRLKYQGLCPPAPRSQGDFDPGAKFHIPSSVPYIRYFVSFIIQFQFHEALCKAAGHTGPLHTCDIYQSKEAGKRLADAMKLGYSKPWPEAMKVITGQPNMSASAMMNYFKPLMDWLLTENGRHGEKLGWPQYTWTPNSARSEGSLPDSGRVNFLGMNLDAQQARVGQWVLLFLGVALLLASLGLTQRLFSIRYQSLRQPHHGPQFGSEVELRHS
Assay: Inhibition of the activity of rabbit lung Angiotensin I converting enzyme
result_type: log10 IC50 (log10 of the value in µM)

INSERT INTO assay_data (compound, experimental_value) VALUES
  ('CC(S)C(=O)N1CSC[C@H]1C(=O)O (stereo in doubt; 37b(S,R))', -0.85),
  ('CC(S)C(=O)N1CSC[C@H]1C(=O)O (stereo in doubt; 37b(R,R))', 1.00),
  ('CC(=O)SC(C)C(=O)N(C1CCCC1)C(C)C(=O)O (stereo unspecified)', 0.83),
  ('CC(S)C(=O)N(C1CCCC1)C(C)C(=O)O (stereo unspecified)', 0.83),
  ('CC(=O)S[C@H](C)C(=O)N1CSC[C@H]1C(=O)O', 1.57),
  ('CC(=O)SC(C)C(=O)N(C1CCCC1)C(C)(C)C(=O)O (stereo unspecified)', 1.98),
  ('Cc1ccc(N(CC(=O)O)C(=O)C(C)S)cc1 (stereo unspecified)', -1.59),
  ('CC(S)C(=O)N1C(C(=O)O)C(C)(C)SC1(C)C (stereo unspecified)', 1.32),
  ('CC(=O)SC(C)C(=O)N(CC(=O)O)c1ccc(C)cc1 (stereo unspecified)', -0.74);
